assay: Volume of distribution at steady state in Wistar rat at 1 mg/kg, iv or 10 mg/kg, po; assay type: ADME, organism-based; conditions: in vivo, read-out: Vdss
The label TRUE is reserved for Vd strictly under 0.8 L/kg; FALSE covers values equal to or above it.

CCOC(=O)N1CCN(C(=O)[C@H](CCC(=O)O)NC(=O)c2cc([C@@H]3C[C@H]3COC)nc(-c3ccccc3)n2)CC1	TRUE
CCOC(=O)N1CCN(C(=O)[C@H](CCC(=O)O)NC(=O)c2cc(NCCO)nc(-c3ccccc3)n2)CC1	FALSE
CCCCOC(=O)N1CCN(C(=O)[C@H](CCC(=O)O)NC(=O)c2cc(N3CC[C@H](OC)C3)nc(-c3ccccc3)n2)CC1	TRUE
CCOC(=O)N1CCN(C(=O)[C@H](CCC(=O)O)NC(=O)c2cc(N3CC[C@H](OC)C3)nc(-c3ccccc3)n2)CC1	FALSE
CCCCOC(=O)N1CCN(C(=O)[C@H](CCC(=O)O)NC(=O)c2cc([C@H]3C[C@@H]3COC)nc(-c3ccccc3)n2)CC1	TRUE

====

assay: Clearance in Wistar rat at 1 mg/kg, iv; assay type: ADME, organism-based; set-up: dose 1 mg/kg, route intravenous; details: in vivo
Measured clearance accompanies every entry in the list below.
measure_name: clearance

CCCCOC(=O)N1CCN(C(=O)[C@H](CCC(=O)O)NC(=O)c2cc(N3CC[C@H](OC)C3)nc(-c3ccccc3)n2)CC1	24 mL/min/kg
CCCCOC(=O)N1CCN(C(=O)[C@H](CCC(=O)O)NC(=O)c2cc([C@H]3C[C@@H]3COC)nc(-c3ccccc3)n2)CC1	17 mL/min/kg
CCOC(=O)N1CCN(C(=O)[C@H](CCC(=O)O)NC(=O)c2cc(N3CC[C@H](OC)C3)nc(-c3ccccc3)n2)CC1	36 mL/min/kg
CCOC(=O)N1CCN(C(=O)[C@H](CCC(=O)O)NC(=O)c2cc([C@@H]3C[C@H]3COC)nc(-c3ccccc3)n2)CC1	14 mL/min/kg
CCOC(=O)N1CCN(C(=O)[C@H](CCC(=O)O)NC(=O)c2cc(N3CCN(C)CC3)nc(-c3ccccc3)n2)CC1	49 mL/min/kg

====

test system: Platelet; experiment: Inhibition of ADP-induced platelet aggregation in human platelet rich plasma assessed as remaining activity at 1000 nM by in-vitro light transmission aggregometry assay; format: functional
Measured Activity accompanies every entry in the list below.
measure_name: Activity

CCOC(=O)N1CCN(C(=O)[C@H](CCC(=O)O)NC(=O)c2cc(NCc3ccccc3)nc(-c3ccccc3)n2)CC1	>30%
CCOC(=O)N1CCN(C(=O)[C@H](CCC(=O)O)NC(=O)c2cc(Nc3ccccc3)nc(-c3ccccc3)n2)CC1	>30%
CCOC(=O)N1CCN(C(=O)[C@H](CCC(=O)O)NC(=O)c2cc(C(C)C)nc(-c3ccccc3)n2)CC1	>30%
CCOC(=O)N1CCN(C(=O)[C@H](CCC(=O)O)NC(=O)c2cc(NCCC(=O)O)nc(-c3ccccc3)n2)CC1	>30%
CCOC(=O)N1CCN(C(=O)[C@H](CCC(=O)O)NC(=O)c2cc(NS(=O)(=O)CC)nc(-c3ccccc3)n2)CC1	>30%

====

tested on: Liver microsome; test: Metabolic stability assay in rat liver microsomes assessed as parent drug disappearance at 1 uM after 20 mins by HPLC and mass spectrometry method; assay type: ADME
measure_name: Stability

CCOC(=O)N1CCN(C(=O)[C@H](CCC(=O)O)NC(=O)c2cc(NCCCO)nc(-c3ccccc3)n2)CC1	Stable
CCCCOC(=O)N1CCN(C(=O)[C@H](CCC(=O)O)NC(=O)c2cc([C@H]3C[C@H]3COC)nc(-c3ccccc3)n2)CC1 (racemic)	Stable
CCOC(=O)N1CCN(C(=O)[C@H](CCC(=O)O)NC(=O)c2cc(NS(=O)(=O)c3ccccc3)nc(-c3ccccc3)n2)CC1	Stable

====

test: Cmax in Wistar rat at 10 mg/kg, po; assay type: ADME, organism-based; parameters: dose 10 mg/kg, route oral; settings: Wistar, in vivo
Parameter threshold = 200 nM. Response is condition met when Cmax meets or exceeds it, else condition not met.

CCOC(=O)N1CCN(C(=O)[C@H](CCC(=O)O)NC(=O)c2cc(NCCO)nc(-c3ccccc3)n2)CC1	condition not met
CCOC(=O)N1CCN(C(=O)[C@H](CCC(=O)O)NC(=O)c2cc(N3CC[C@H](OC)C3)nc(-c3ccccc3)n2)CC1	condition met
CCCCOC(=O)N1CCN(C(=O)[C@H](CCC(=O)O)NC(=O)c2cc([C@H]3C[C@@H]3COC)nc(-c3ccccc3)n2)CC1	condition met
CCOC(=O)N1CCN(C(=O)[C@H](CCC(=O)O)NC(=O)c2cc(N3CCN(C)CC3)nc(-c3ccccc3)n2)CC1	condition not met
CCCCOC(=O)N1CCN(C(=O)[C@H](CCC(=O)O)NC(=O)c2cc(N3CC[C@H](OC)C3)nc(-c3ccccc3)n2)CC1	condition met
CCOC(=O)N1CCN(C(=O)[C@H](CCC(=O)O)NC(=O)c2cc(C(C)(C)O)nc(-c3ccccc3)n2)CC1	condition not met
CCOC(=O)N1CCN(C(=O)[C@H](CCC(=O)O)NC(=O)c2cc(C3CCC(O)CC3)nc(-c3ccccc3)n2)CC1 (stereo partly drawn)	condition not met
CCOC(=O)N1CCN(C(=O)[C@H](CCC(=O)O)NC(=O)c2cc([C@@H]3C[C@H]3COC)nc(-c3ccccc3)n2)CC1	condition met

====

Measured fraction unbound accompanies every entry in the list below.
assay: Protein binding in human plasma; assay type: ADME, cell-free; conditions: read-out: PPB (converted)
measure_name: fraction unbound

CCCNc1cc(C(=O)N[C@@H](CCC(=O)O)C(=O)N2CCN(C(=O)OCC)CC2)nc(-c2ccccc2)n1	0.015
CCOC(=O)N1CCN(C(=O)[C@H](CCC(=O)O)NC(=O)c2cc(N[C@@H]3CCOC3)nc(-c3ccccc3)n2)CC1	0.085
CCOC(=O)N1CCN(C(=O)[C@H](CCC(=O)O)NC(=O)c2cc(C3CC3)nc(-c3ccccc3)n2)CC1	0.003
CCOC(=O)N1CCN(C(=O)[C@H](CCC(=O)O)NC(=O)c2cc(NCCO)nc(-c3ccccc3)n2)CC1	0.135
CCOC(=O)N1CCN(C(=O)[C@H](CCC(=O)O)NC(=O)c2cc(CCCO)nc(-c3ccccc3)n2)CC1	0.128
CCCCc1cc(C(=O)N[C@@H](CCC(=O)O)C(=O)N2CCN(C(=O)OCC)CC2)nc(-c2ccccc2)n1	0.007
CCOC(=O)N1CCN(C(=O)[C@H](CCC(=O)O)NC(=O)c2cc([C@H]3C[C@@H]3COC)nc(-c3ccccc3)n2)CC1	0.034

====

experiment: AUC in Wistar rat at 10 mg/kg, po; assay type: ADME, organism-based, Plasma; set-up: dose 10 mg/kg, route oral; details: Wistar, plasma
measure_name: AUC (µM·h)

CCOC(=O)N1CCN(C(=O)[C@H](CCC(=O)O)NC(=O)c2cc([C@@H]3C[C@H]3COC)nc(-c3ccccc3)n2)CC1	2.31
CCOC(=O)N1CCN(C(=O)[C@H](CCC(=O)O)NC(=O)c2cc(N3CC[C@H](OC)C3)nc(-c3ccccc3)n2)CC1	0.638
CCCCOC(=O)N1CCN(C(=O)[C@H](CCC(=O)O)NC(=O)c2cc([C@H]3C[C@@H]3COC)nc(-c3ccccc3)n2)CC1	6
CCOC(=O)N1CCN(C(=O)[C@H](CCC(=O)O)NC(=O)c2cc(C(C)(C)O)nc(-c3ccccc3)n2)CC1	0.109

====

assay: Oral bioavailability in Wistar rat at 10 mg/kg; format: ADME, organism-based; settings: Wistar, in vivo
Measured bioavailability accompanies every entry in the list below.
measure_name: bioavailability (%)

CCCCOC(=O)N1CCN(C(=O)[C@H](CCC(=O)O)NC(=O)c2cc(N3CC[C@H](OC)C3)nc(-c3ccccc3)n2)CC1	9
CCOC(=O)N1CCN(C(=O)[C@H](CCC(=O)O)NC(=O)c2cc(N3CCN(C)CC3)nc(-c3ccccc3)n2)CC1	3
CCOC(=O)N1CCN(C(=O)[C@H](CCC(=O)O)NC(=O)c2cc(N3CC[C@H](OC)C3)nc(-c3ccccc3)n2)CC1	8

====

molecular target: P2Y purinoceptor 12 (Homo sapiens); assay: Displacement of [3H]-2-methyl-thio-adenosine 5'-diphosphate from human recombinant P2Y12 expressed in CHO cell membranes by scintillation counting method
Sequence (Q9H244 whole entry): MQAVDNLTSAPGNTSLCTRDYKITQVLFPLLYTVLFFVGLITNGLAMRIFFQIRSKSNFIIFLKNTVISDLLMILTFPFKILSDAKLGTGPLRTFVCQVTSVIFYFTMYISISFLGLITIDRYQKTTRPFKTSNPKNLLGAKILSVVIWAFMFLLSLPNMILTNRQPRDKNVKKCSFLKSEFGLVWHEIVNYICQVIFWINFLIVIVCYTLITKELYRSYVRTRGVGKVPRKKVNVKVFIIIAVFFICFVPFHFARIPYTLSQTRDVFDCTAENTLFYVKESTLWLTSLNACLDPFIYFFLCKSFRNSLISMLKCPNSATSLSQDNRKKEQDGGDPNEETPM
pIC50: −log10 of the molar value.
Parameter threshold = 7. Response is yes when pIC50 meets or exceeds it, else no.

CCOC(=O)N1CCN(C(=O)[C@H](CCC(=O)O)NC(=O)c2cc(NC(=O)c3ccccc3)nc(-c3ccccc3)n2)CC1	no
CCOC(=O)N1CCN(C(=O)[C@H](CCC(=O)O)NC(=O)c2cc(CCCO)nc(-c3ccccc3)n2)CC1	no
CCOC(=O)N1CCN(C(=O)[C@H](CCC(=O)O)NC(=O)c2cc([C@H]3C[C@@H]3COC)nc(-c3ccccc3)n2)CC1	yes
CCOC(=O)N1CCN(C(=O)[C@H](CCC(=O)O)NC(=O)c2cc(-n3cc(C)cn3)nc(-c3ccccc3)n2)CC1	yes
CCOC(=O)N1CCN(C(=O)[C@H](CCC(=O)O)NC(=O)c2cc(NCCN(C)C)nc(-c3ccccc3)n2)CC1	no
CCOC(=O)N1CCN(C(=O)[C@H](CCC(=O)O)NC(=O)c2cc(C3CCC(O)CC3)nc(-c3ccccc3)n2)CC1 (stereo not given in full)	yes
CCOC(=O)N1CCN(C(=O)[C@H](CCC(=O)O)NC(=O)c2cc(C(C)C)nc(-c3ccccc3)n2)CC1	yes
CCOC(=O)N1CCN(C(=O)[C@H](CCC(=O)O)NC(=O)c2cc(C3CC3)nc(-c3ccccc3)n2)CC1	yes
CCOC(=O)N1CCN(C(=O)[C@H](CCC(=O)O)NC(=O)c2cc(N3CCCCC3CN(C)C)nc(-c3ccccc3)n2)CC1 (stereo not given in full)	no
CCOC(=O)N1CCN(C(=O)[C@H](CCC(=O)O)NC(=O)c2cc(NCCC(=O)O)nc(-c3ccccc3)n2)CC1	no
CCCCOC(=O)N1CCN(C(=O)[C@H](CCC(=O)O)NC(=O)c2cc(N3CC[C@H](OC)C3)nc(-c3ccccc3)n2)CC1	yes
CCOC(=O)N1CCN(C(=O)[C@H](CCC(=O)O)NC(=O)c2cc(N3CC[C@H](O)C3)nc(-c3ccccc3)n2)CC1	yes
CCOC(=O)N1CCN(C(=O)[C@H](CCC(=O)O)NC(=O)c2cc([C@H]3C[C@@H]3COC)nc(-c3ccccc3)n2)CC1 (racemic)	yes
